assay.system: human serum albumin (HSA) (Homo sapiens)
Construct: purchased Sigma-Aldrich; host or cells: rice
assay.notes: Fluorescence spectroscopy of HSA (Trp fluorescence quenching/enhancement; KD by DynaFit)
Assay type: binding
cond: ternary system [(HSA + Q) + R]: HSA pre-incubated with 5 μM Q, R varied; HSA 5 μM, pH 7.4; read-out: KD (Fluor.)
experimental.readout: Kd (µM)

> print(dat)
                              record.smiles  assay.result
1  CCOC(=O)[C@H](CCc1ccccc1)N[C@@H](C)C(=O)N1[C@H](C(=O)O)C[C@@H]2CCC[C@@H]21           593

---

assay.system: human serum albumin (HSA) (Homo sapiens, UniProt P02768)
Construct: purchased Sigma-Aldrich; host or cells: rice
Sequence (P02768 25-609): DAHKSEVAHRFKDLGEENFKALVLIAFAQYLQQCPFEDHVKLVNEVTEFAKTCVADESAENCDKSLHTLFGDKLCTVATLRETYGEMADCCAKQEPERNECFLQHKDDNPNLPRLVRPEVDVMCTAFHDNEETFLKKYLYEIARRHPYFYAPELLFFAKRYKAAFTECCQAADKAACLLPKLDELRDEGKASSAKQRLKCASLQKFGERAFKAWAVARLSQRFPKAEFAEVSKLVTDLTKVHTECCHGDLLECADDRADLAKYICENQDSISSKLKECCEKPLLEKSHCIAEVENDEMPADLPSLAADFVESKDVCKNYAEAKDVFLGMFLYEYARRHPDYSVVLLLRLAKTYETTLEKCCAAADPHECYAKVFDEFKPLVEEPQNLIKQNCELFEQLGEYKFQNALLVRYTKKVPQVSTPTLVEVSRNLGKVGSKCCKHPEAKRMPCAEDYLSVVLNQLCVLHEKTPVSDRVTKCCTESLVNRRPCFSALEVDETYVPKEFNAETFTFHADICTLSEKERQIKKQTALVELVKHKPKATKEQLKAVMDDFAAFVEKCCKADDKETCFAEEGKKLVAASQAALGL
assay.notes: Microscale thermophoresis (MST) with RED-NHS labeled HSA
Type: binding
cond: ternary system [(HSA + Q) + R]; from increase in fluorescence in the initial capillary scans; c(Q) 20 nM, HSA 20 nM; read-out: KD (MST Fluorescence)
experimental.readout: Kd (µM)

> print(dat)
                              record.smiles                              assay.system  assay.result
1  CCOC(=O)[C@H](CCc1ccccc1)N[C@@H](C)C(=O)N1[C@H](C(=O)O)C[C@@H]2CCC[C@@H]21  human serum albumin (HSA) (Homo sapiens, UniProt P02768)           168

---

assay.system: human serum albumin (HSA) (Homo sapiens)
Construct: purchased Sigma-Aldrich; host or cells: rice
assay.notes: Microscale thermophoresis (MST) with RED-NHS labeled HSA
Assay type: binding
cond: ternary system [(HSA + Q) + R]; c(Q) 20 nM, HSA 20 nM, T = 297.05 K, pH 7.4; read-out: KD (MST)
experimental.readout: Kd (µM)

> print(dat)
                                   compound  experimental.readout  assay.result
1  CCOC(=O)[C@H](CCc1ccccc1)N[C@@H](C)C(=O)N1[C@H](C(=O)O)C[C@@H]2CCC[C@@H]21 [ramipril]                    Kd           112
